target: Alpha-galactosidase A (Homo sapiens) (UniProt P06280); assay: Counterscreen for Glucocerebrosidase Inhibitors: qHTS Assay for Human alpha-Galactosidase at pH 4.5 (AID 992); settings: purified enzyme, fluorogenic substrate; series mostly up to 76.9 µM; further: 0% is about no effect
Sequence (P06280 whole entry, looked up): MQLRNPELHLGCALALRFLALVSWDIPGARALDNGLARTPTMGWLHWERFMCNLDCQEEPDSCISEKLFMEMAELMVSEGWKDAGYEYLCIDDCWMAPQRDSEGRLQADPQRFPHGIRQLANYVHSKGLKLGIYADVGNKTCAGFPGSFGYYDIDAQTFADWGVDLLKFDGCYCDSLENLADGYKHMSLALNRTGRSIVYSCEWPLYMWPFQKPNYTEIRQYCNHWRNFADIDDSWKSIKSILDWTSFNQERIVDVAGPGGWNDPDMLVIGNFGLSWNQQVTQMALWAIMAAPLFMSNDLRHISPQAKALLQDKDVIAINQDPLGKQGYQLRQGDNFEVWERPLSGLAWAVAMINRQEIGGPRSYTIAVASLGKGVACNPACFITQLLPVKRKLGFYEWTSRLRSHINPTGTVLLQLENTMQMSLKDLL
Calls of active or inactive are those of the source. The call rests on the fitted dose curve; in most records, active means well fitted curve in the direction sought with a large enough effect; inactive means no such curve, though single readings can be large or run the other way.
Recorded Endpoint: outcome

* N#C/C(=C\c1ccc(O)c(O)c1)C(=O)NCCCc1ccccc1 | inactive
* CN=c1nc(-c2ccccc2)n(-c2ccccc2)s1 | inactive
* N.N.O=C(O)C1(C(=O)O)CCC1.[Pt] | inactive
* NO | inactive
* Fc1ccc(C(OCCCc2cnc[nH]2)c2ccc(F)cc2)cc1 | inactive
* C[C@@H](NC(=O)/C(C#N)=C/c1ccc(O)c(O)c1)c1ccccc1 | inactive
* COC1=C(OC)C(=O)c2ccccc2C1=O | inactive
* CCN1/C(=C/C(C)=O)Sc2ccc(OC)cc21 | inactive
* Ic1ccc(N2CCN(Cc3c[nH]c4ncccc34)CC2)cc1 | inactive
* N#C/C(=C\c1ccc(O)c(O)c1)C(=O)NCc1ccccc1 | inactive
* COc1ccccc1N1CCN(CCCCNS(=O)(=O)c2cccc3c(N(C)C)cccc23)CC1 | inactive
* COc1cccc(C(=O)NCCN2CCN(c3ccc(Cl)cc3)CC2)c1 | inactive
* Oc1cc2c(cc1O)CN(C(=S)NCCc1ccc(Cl)cc1)CCC2 | inactive
* CN(C)c1nc(N)c(C(=O)N=C(N)N)nc1Cl | inactive
* CN1[C@@H]2CC[C@H]1CC(OC(c1ccccc1)c1ccccc1)C2 (stereo partly drawn) | inactive
* COc1ccc(/C=C/C(=O)Nc2ccccc2C(=O)O)cc1OC | inactive
* O=S(=O)(c1cccc2c(I)cccc12)N1CCCNCC1 | inactive
* NCCSSCCN | inactive

---

test: qHTS of pediatric cancer cell lines to identify multiple opportunities for drug repurposing: Primary screen for SK-N-SH cells (AID 1347098); settings: SK-N-SH viability, CellTiter-Glo luminescence, 48 h; series mostly up to 57 µM; further: nearly all actives have a fitted effect of over 65% in size
Results filed as inconclusive are left out. The source made the active and inactive calls. The call rests on the fitted dose curve; in most records, active means well fitted cell-killing curve with a large enough effect; inconclusive means small, poorly fitted or top-dose-only effect; inactive means no such curve, though single readings can be large or run the other way.
Outcomes: yes (1) (active), no (0) (inactive)

* Cc1cc(O)c2ccccc2c1O | yes (1)
* COc1cc2c3cc1Oc1cc(ccc1O)C[C@@H]1c4c(cc(OC)c(O)c4Oc4ccc(cc4)C[C@@H]3N(C)CC2)CC[N+]1(C)C | no (0)
* CN(C)c1ccc(C(=C2C=CC(=[N+](C)C)C=C2)c2ccccc2)cc1 | yes (1)
* Cc1c(N)c(=O)n(-c2ccccc2)n1C | no (0)
* CCCOC(=O)c1ccc(O)cc1 | no (0)
* CNC(=O)c1c(I)c(NC(=O)CCCCC(=O)Nc2c(I)c(C(=O)O)c(I)c(C(=O)NC)c2I)c(I)c(C(=O)O)c1I | no (0)
* O=C(Nc1ccc(C(=O)O)c(O)c1)c1ccccc1 | no (0)
* C=CCCCCCCCCC(=O)O | no (0)
* CC(=O)SCC(CC(=O)c1ccc(C)cc1)C(=O)O (centres undefined) | no (0)
* O=C(O)/C=C\C(=O)O | no (0)
* CC1(C)S[C@@H]2[C@H](NC(=O)[C@H](N)c3ccccc3)C(=O)N2[C@H]1C(=O)O | no (0)
* Nc1c(CC(=O)O)cccc1C(=O)c1ccc(Br)cc1 | no (0)
* CC(C(=O)O)c1ccc(C(=O)c2cccs2)cc1 (centres undefined) | no (0)
* O=c1[nH]c2ccccc2n1CCCN1CCN(C(c2ccccc2)c2ccccc2)CC1 | yes (1)
* COc1cc(NC(C)CCCN)c2ncccc2c1 (centres undefined) | yes (1)
* CC(C)(C)c1nnc(NS(=O)(=O)c2ccc(N)cc2)s1 | no (0)
* COC(=O)c1nc(Cl)c(Cl)nc1N | yes (1)
* C/C(=N\O)c1ccc(OCC(=O)N2CCCCC2)cc1 | no (0)
* Cc1ccc2c(n1)Oc1ccc(C(C)C(=O)OCC(=O)N(C)C)cc1C2 (centres undefined) | no (0)
* Cc1c(Nc2ncccc2C(=O)O)cccc1C(F)(F)F | no (0)
* Cc1ccc(O)c(-n2nc3ccccc3n2)c1 | no (0)
* c1ccc2sc(SN3CCOCC3)nc2c1 | no (0)
* O=C1CN(/N=C/c2ccc([N+](=O)[O-])o2)C(=O)N1 | no (0)
* CCCC(=O)OC[C@@H](OC(=O)CCC)[C@@H](OC(=O)CCC)[C@H](Cn1c2nc(=O)[nH]c(=O)c-2nc2cc(C)c(C)cc21)OC(=O)CCC | no (0)

---

Test system: CP291
Assay: qHTS profiling for inhibitors of Plasmodium falciparum proliferation (AID 504749); further: nearly all actives have a fitted effect of over 60% in size
Conditions: P. falciparum in erythrocytes, SYBR Green DNA, 72 h; series mostly up to 28.7 µM
Procedure: NIH National Institute of Allergy and Infectious Diseases [NIAID] NIH Chemical Genomics Center [NCGC] […] Because mature erythrocytes lack DNA, only Plasmodium-derived DNA is detected. NCGC Assay Protocol Summary: The SYBR Green viability assay was adapted from a method described previously (Plouffe et al., 2008). […] The following morning, fluorescence intensity at 485(14) nm excitation and 535(25) nm emission wavelengths was measured on an EnVision (Perkin Elmer) plate reader. […]
Records with an inconclusive call do not appear. Activity calls are given as the source filed them. The call rests on the fitted dose curve; in most records, active means well fitted inhibition curve with a large enough effect; inconclusive means small, poorly fitted or top-dose-only effect; inactive means flat fitted curve, though single readings scatter.
Outcomes: active, inactive

* Cc1cc(O)c2ccccc2c1O | inactive
* C#C[C@]1(O)CC[C@H]2[C@@H]3CCc4cc(O)ccc4[C@H]3CC[C@@]21C | inactive
* [O-][n+]1ccccc1SSc1cccc[n+]1[O-] | active
* CC(=O)[C@]1(O)Cc2c(O)c3c(c(O)c2[C@@H](O[C@H]2C[C@H](N)[C@H](O)[C@H](C)O2)C1)C(=O)c1c(O)cccc1C3=O | active
* Cc1[nH]cnc1CN1CCc2c(c3ccccc3n2C)C1=O | inactive
* O=C1CN(/N=C/c2ccc(-c3ccc([N+](=O)[O-])cc3)o2)C(=O)N1 | inactive
* O=C(O)[C@H](O)[C@@H](O)[C@H](O)[C@H](O)CO | inactive
* COC(=O)C1=C(C)NC(C)=C(C(=O)OCC(C)C)C1c1ccccc1[N+](=O)[O-] (stereo unspecified) | active
* CC1OC1P(=O)(O)O (stereo unspecified) | inactive
* Cc1c(Nc2ncccc2C(=O)O)cccc1C(F)(F)F | inactive
* Nc1ccc(O)c(C(=O)O)c1 | inactive

---

target: Thioredoxin reductase 1, cytoplasmic (Rattus norvegicus) (UniProt O89049); experiment: qHTS Assay for Inhibitors of Mammalian Selenoprotein Thioredoxin Reductase 1 (TrxR1) (AID 488773); details: purified TrxR1 enzyme activity; inhibition; series mostly up to 57.1 µM;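 further: drop in NADPH fluorescence over an 8 min run after selenite addition; nearly all actives have a fitted effect of over 40% in size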
Sequence (O89049 whole entry, looked up): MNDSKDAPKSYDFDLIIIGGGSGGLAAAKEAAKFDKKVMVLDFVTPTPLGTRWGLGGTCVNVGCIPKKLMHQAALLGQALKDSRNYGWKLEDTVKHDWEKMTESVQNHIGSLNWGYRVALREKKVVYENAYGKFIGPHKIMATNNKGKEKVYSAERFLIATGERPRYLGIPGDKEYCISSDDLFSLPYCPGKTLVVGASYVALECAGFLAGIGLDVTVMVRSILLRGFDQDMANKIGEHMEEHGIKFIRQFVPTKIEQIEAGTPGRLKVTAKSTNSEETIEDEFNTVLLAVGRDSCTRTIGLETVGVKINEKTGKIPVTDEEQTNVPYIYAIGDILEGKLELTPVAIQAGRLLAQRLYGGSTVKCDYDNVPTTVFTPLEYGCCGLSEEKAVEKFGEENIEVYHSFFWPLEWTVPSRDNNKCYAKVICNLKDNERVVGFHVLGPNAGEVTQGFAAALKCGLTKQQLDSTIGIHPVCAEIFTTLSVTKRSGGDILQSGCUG
Inconclusive results are not listed. Activity calls are given as the source filed them. Calls come from the whole dose curve; as a rule, active = well fitted inhibition curve with a large enough effect; inconclusive = small, poorly fitted or top-dose-only effect; inactive = no such curve, though single readings can be large or run the other way.
Recorded Endpoint: outcome

• CCCCCC(O)c1cccc(OCc2ccc3ccccc3n2)c1 (stereo unspecified) = inactive
• Nc1nc(Cl)nc2c1ncn2[C@@H]1O[C@H](COP(=O)(O)OP(=O)(O)OP(=O)(O)O)[C@@H](O)[C@H]1O = inactive
• Nc1nc(Nc2ccccc2)nc2c1ncn2[C@@H]1O[C@H](CO)[C@@H](O)[C@H]1O = inactive
• CN(C)CCCO[C@@H]1[C@H]2OC(C)(C)O[C@H]2O[C@@H]1[C@H](O)CO = inactive
• CNc1ncnc2c1ncn2[C@@H]1O[C@H](CO)[C@@H](O)[C@H]1O = inactive
• CCCN(CC1CC1)c1nc(C)nc(Nc2c(Cl)cc(Cl)cc2Cl)c1Cl = inactive

---

experiment: Primary qHTS for inhibitors of nuclear receptor binding SET domain protein 2 (NSD2) in an isogenic RCH-ACV NSD2 p.E1099K mutant (9B) (AID 1645876); details: RCH-ACV (leukaemia line) NSD2 E1099K (9B) viability, CellTiter-Glo, 72 h; series mostly up to 44.9 µM; further: nearly all actives have a fitted effect of over 70% in size; further: potency means the concentration at half of the fitted maximal effect
Records with an inconclusive call do not appear. Calls of active or inactive are those of the source. Calls come from the whole dose curve; as a rule, active = well fitted inhibition curve with a large enough effect; inconclusive = small, poorly fitted or top-dose-only effect; inactive = flat fitted curve, though single readings scatter.
Recorded Endpoint: Potency

• CC1(C)S[C@@H]2[C@H](NC(=O)[C@H](N)c3ccc(O)cc3)C(=O)N2[C@H]1C(=O)O = inactive
• Oc1c(Br)cc(Br)c2cccnc12 = 3.76 µM (active)
• CCCCCCCCCCCCOCCO = inactive
• O=C(CCN1CCN(CCO)CC1)N1c2ccccc2Sc2ccc(C(F)(F)F)cc21 = inactive
• CCN1/C(=C/C(C)=O)Sc2ccc(OC)cc21 = inactive
• C[N+]1(C)[C@@H]2CC(OC(=O)[C@H](CO)c3ccccc3)C[C@H]1[C@@H]1O[C@@H]12 (stereo partly specified) = inactive
• C=CCc1cccc(/C=N/NC(=O)CN2CCN(Cc3ccccc3)CC2)c1O = 7.42 µM (active)
• CCCCC1C(=O)N(c2ccccc2)N(c2ccc(O)cc2)C1=O (stereo unspecified) = 0.531 µM (active)
• COC(=O)Nc1nc2ccc(C(=O)C3CC3)cc2[nH]1 = 0.376 µM (active)
• COc1cccc2c1C(=O)c1c(O)c3c(c(O)c1C2=O)C[C@@](O)(C(=O)CO)C[C@@H]3O[C@H]1C[C@H](N)[C@H](O[C@@H]2CCCCO2)[C@H](C)O1 = 0.0067 µM (active)
• COc1cc(NC(C)CCCN)c2ncccc2c1 (stereo unspecified) = 6.68 µM (active)
